Just for reference, PubChem BioAssay AID256 is where these values come from.

Tested on: CD2F1 mice, L1210 leukemia ip, survival T/C
Experiment: NCI In Vivo Anticancer Drug Screen. Data for tumor model L1210 Leukemia (intraperitoneal) in CD2F1 (CDF1) mice
Conditions: endpoint: mean survival time; dose: 25.0 mg/kg/injection; schedule: Q04DX002 (ip); vehicle: saline with Tween-80; higher = longer survival
Experimental: The antitumor activity of compounds was measured in mice bearing transplantable tumors. Survival or tumor size were measured and the results are expressed as the measurement made in the treated group (T) divided by the measurement made in the vehicle treated control group (C). The tumor model used in this assay is L1210 Leukemia (intraperitoneal) in CD2F1 (CDF1) mice
Inconclusive results and toxic doses are left out.
Reported T/C values follow for various compounds

>  <compound>
CCC(=O)OC1(c2ccccc2)CCN(CCCc2ccccc2Cl)CC1

>  <T/C>
95 % of control

$$$$
>  <compound>
O=C(/C=C\c1ccc(Cl)c(Cl)c1)/C=C/c1ccc(Cl)c(Cl)c1

>  <T/C>
95 % of control

$$$$
>  <compound>
N=C(N)SCc1c(Cl)c(Cl)c(Cl)c(Cl)c1Cl

>  <T/C>
103 % of control

$$$$
>  <compound>
CN1C(=O)C=CC1=O (tested in a mixture with another compound)

>  <T/C>
103 % of control

$$$$
>  <compound>
CCN(CC)c1cc(Cl)ccc1C

>  <T/C>
95 % of control

$$$$
>  <compound>
Cc1[nH]c2ccc(N=CN(C)C)cc2c1C

>  <T/C>
111 % of control

$$$$
>  <compound>
O=C1CCc2ccsc21

>  <T/C>
98 % of control

$$$$
>  <compound>
CC(C)(C)C1SCC(O)CS1 (configuration not stated)

>  <T/C>
97 % of control

$$$$
>  <compound>
CCCOC(=O)COc1ccc(F)cc1F

>  <T/C>
103 % of control

$$$$
>  <compound>
N#Cc1nc(-c2ccco2)c(-c2ccco2)nc1C#N

>  <T/C>
102 % of control

$$$$
>  <compound>
CCOC(=O)C(CCC(O)C#N)(NC(C)=O)C(=O)OCC (configuration not stated)

>  <T/C>
101 % of control

$$$$
>  <compound>
COc1ccccc1N=Nc1c(O)n(-c2ccccc2OC)c(=S)n(-c2ccc(C)cc2)c1=O

>  <T/C>
90 % of control

$$$$
